protocolNotes: yeast display, Sf9 membrane polyspecificity reagent, FACS + sequencing; frameworks hold sequencing errors
observedProperty: polyreactivity (PSR sort gate)

[
  {
    "constructSequence": "QVQLEESPGGLVQAGGSLRLSCAASGRIIGRYAMGWTRQAPGKERELVAAISYRGGSTYYADSVKGRFTISRDNAKNTVYLQMNSLKPEDTAVYYCAKDSRSWPFKYDYWGQGTQVTVSS",
    "measValue": "high polyreactivity"
  },
  {
    "constructSequence": "QVQLVESGGGLVQAGGSLRLSCPASGSIYGLYSMGWYRQAPGKERELVAVITYSVGTTYYADSVKGRFTISRDNAKNTVYLQMNSLKPEDTAVYYCAADLYWYYPWSAYYGEYDYWGQGTQVTVSS",
    "measValue": "low polyreactivity"
  },
  {
    "constructSequence": "QVQLVESGGGLVQAGGSLRLSCAASGLTFIYYAMGWYRQAPGKERELVAAISVSGGSTSYADSVKGRFTISRDNAKNTVYLQMNSLKPEDTAVYYCAADWFVHKPRYQYSFDYWGQGTQVTVSS",
    "measValue": "low polyreactivity"
  },
  {
    "constructSequence": "QVQLVESGGGLVQAGGSLRLSSPASGFNFKSNCMGWYRQAPGKERELIADIRRSVGSTYYADYVKGRFTISRDNAKNTVYLQMNSLKPEDTSVYYCNAKYIKGRDWGQCTQVTVSS",
    "measValue": "high polyreactivity"
  }
]

As a next step, examine the sequence that follows.
input: Give the value of polyreactivity (PSR sort gate) reported for the following: QVQLVESGGGLVQAGGSLRLSCAASGFIFADNTMGWYRQAPGKERELVAAISRRGGSTYYADSVKGRFTISRDNAKNTVYLQMNSLKPEDTAVYYCAARPFVKHDYWGQGTQVTVSS
output: high polyreactivity
